Where these numbers come from: patent US20170190671A1

For each record, write down the corresponding pest or weed control at 125 g/ha.
test system: pigweed (Amaranthus retroflexus); assay: Test C postemergence; format: in vivo; conditions: Amaranthus retroflexus, post-emergence, 336 h; Postemergence, 125 g ai/ha, scale 0 to 100; read-out: Plant response rating, Pigweed
From the text: […]
Give the number; % is assumed, so skip it.

What measured pest or weed control at 125 g/ha goes with FC(F)c1cccc(Oc2ncc(Cl)cn2)c1Oc1ncc(Cl)cn1 ? 85

What measured pest or weed control at 125 g/ha goes with Fc1cccc(Oc2ncc(Cl)cn2)c1Oc1ncc(Br)cn1 ? 95

What measured pest or weed control at 125 g/ha goes with Fc1cnc(Oc2c(Br)cccc2Oc2ncc(Cl)cn2)nc1 ? 90

What measured pest or weed control at 125 g/ha goes with Fc1cccc(Oc2ncc(Cl)cn2)c1Oc1ncc(C(F)(F)F)cn1 ? 98

What measured pest or weed control at 125 g/ha goes with N#Cc1cccc(Oc2ncc(Cl)cn2)c1Oc1ccc(Cl)cc1 ? 100
